test system: NCI-H23 complex spheroids with HUVEC/MSC, viability; assay: Anticancer human tumor NCI-H23 cell line growth inhibition [RAS]; conditions: second compound 0.0949 µM; first compound 0.1 µM; active compounds read low;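 also: spheroids exposed to compound for 7 days; 100% = DMSO vehicle control viability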
compounds and their reported viability, T/C
measured_metric: viability, T/C (%)

{"compound": "CCC(CC)c1cc(NC2CCC(N)C2)n2nccc2n1 (stereo not drawn) + CCn1c(-c2cc(N3CCN(C)CC3)cnc2C(C)OC)c2c3cc(ccc31)-c1csc(n1)CC(NC(=O)C1CC1C)C(=O)N1CCCC(N1)C(=O)OCC(C)(C)C2", "readout_number": 23.2}
{"compound": "C[C@@H](NC(=O)c1ncnc(N)c1Cl)c1ncc(C(=O)Nc2cc(C(F)(F)F)c(Cl)cn2)s1 + CCn1c(-c2cc(N3CCN(C)CC3)cnc2C(C)OC)c2c3cc(ccc31)-c1csc(n1)CC(NC(=O)C1CC1C)C(=O)N1CCCC(N1)C(=O)OCC(C)(C)C2", "readout_number": 22.3}
{"compound": "O=C(c1ccc(F)c(F)c1Nc1ccc(I)cc1F)N1CC(O)([C@@H]2CCCCN2)C1 + CCn1c(-c2cc(N3CCN(C)CC3)cnc2C(C)OC)c2c3cc(ccc31)-c1csc(n1)CC(NC(=O)C1CC1C)C(=O)N1CCCC(N1)C(=O)OCC(C)(C)C2", "readout_number": 6.35}

* * *

test system: NCI-H23 complex spheroids with HUVEC/MSC, viability; assay: Anticancer human tumor NCI-H23 cell line growth inhibition [RAS]; settings: second compound 0.1 µM; first compound 1 µM; active compounds read low;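 also: spheroids exposed to compound for 7 days; 100% = DMSO vehicle control viability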
Listed molecules paired with reported viability, T/C

{"molecule": "Cc1nc(N2CCC3(CC2)COC(C)C3N)c(CO)nc1Sc1ccnc(N)c1Cl (stereo not given) + C#Cc1c(F)ccc2cc(O)cc(-c3ncc4c(N5CC6CCC(C5)N6)nc(OCC56CCCN5CC(F)C6)nc4c3F)c12", "value_units": "%", "viability, T/C": 48.6}
{"molecule": "CC(Nc1ccc2c(c1)OCCn1cc(N3C(=O)OCC3C(F)F)nc1-2)C(N)=O (stereo not given) + C=CC(=O)N1CCN(c2nc(OCC3CCCN3C)nc3c(F)c(-c4nc(N)cc(C)c4C(F)(F)F)c(Cl)cc23)C(C)C1", "value_units": "%", "viability, T/C": 27.6}
{"molecule": "CC(C)NCC(C(=O)N1CCN(c2ncnc3c2C(C)CC3O)CC1)c1ccc(Cl)cc1 (stereo not given) + C#Cc1c(F)ccc2cc(O)cc(-c3ncc4c(N5CC6CCC(C5)N6)nc(OCC56CCCN5CC(F)C6)nc4c3F)c12", "value_units": "%", "viability, T/C": 91}
{"molecule": "CCN1CCN(Cc2ccc(Nc3ncc(F)c(-c4cc(F)c5nc(C)n(C(C)C)c5c4)n3)nc2)CC1 + C#Cc1c(F)ccc2cc(O)cc(-c3ncc4c(N5CC6CCC(C5)N6)nc(OCC56CCCN5CC(F)C6)nc4c3F)c12", "value_units": "%", "viability, T/C": 52.2}
{"molecule": "CC1(O)CCCC1n1c(=O)c(C(F)F)cc2cnc(NC3CCN(S(C)(=O)=O)CC3)nc21 (stereo not given) + C=CC(=O)N1CCN(c2nc(OCC3CCCN3C)nc3c(F)c(-c4nc(N)cc(C)c4C(F)(F)F)c(Cl)cc23)C(C)C1", "value_units": "%", "viability, T/C": 22.6}
